Test system: PKAC-beta;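 also: KINOMEscan kinase panel screen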
Construct: gene PRKACB
Conditions: concentration: 1 μM, replicates: in singlicate; n = 1
Could you mark each record rule met if its %Inh falls strictly under 4%, and rule not met if it equals or exceeds it?

As a guide, the following entries are already answered.
>>> label_value("CCNC(=O)/C=C/c1n[nH]c2cc(Sc3ccccc3C(=O)NC)ccc12")
"rule not met"
>>> label_value("Cc1ccc(C)c(NC(=O)Nc2ccc(C)c(-c3ccc(C(=O)Nc4ccncc4)cc3)c2)c1")
"rule not met"
>>> label_value("N#Cc1cnc2cc(-c3cnc(CNCCN4CCOCC4)s3)ccc2c1Nc1ccc(Oc2ccccc2)cc1")
"rule met"
>>> label_value("COC(=O)Nc1nc2ccc(Oc3ccc(CC(=O)Nc4cc(C(F)(F)F)ccc4F)cc3)cc2[nH]1")
"rule met"

*Q* Please determine if `Cc1nn2c(=O)cc(N3CCO[C@H](C)C3)nc2n1Cc1cccc(Cl)c1Cl` is below 4% in terms of %Inh.
*A* rule not met

*Q* Try Cl.Cl.NC(CNC(=O)c1cc(Br)c(-c2ccnc3[nH]ccc23)s1)c1ccccc1 (centres unmarked) next.
*A* rule not met

*Q* Try `O=C(O)C(F)(F)F.O=c1[nH]ccc2nc(N[C@@H]3CCNC3)nc(Nc3ccc4c(c3)S(=O)(=O)CC4)c12` next.
*A* rule not met

*Q* Try NCCC(NC(=O)c1cc(Br)c(-c2ccnc3[nH]ccc23)s1)c1ccccc1.O=C(O)C(F)(F)F.O=C(O)C(F)(F)F (centres unmarked) next.
*A* rule not met

*Q* Try `CCn1cnc2c(NCc3ccccc3)ncnc21` next.
*A* rule met
